Every entry's value here was drawn from patent US11912668B2.

TARGET DESC: GCN2 kinase (Homo sapiens (Human), UniProt Q9P2K8)
Sequence (Q9P2K8 whole entry): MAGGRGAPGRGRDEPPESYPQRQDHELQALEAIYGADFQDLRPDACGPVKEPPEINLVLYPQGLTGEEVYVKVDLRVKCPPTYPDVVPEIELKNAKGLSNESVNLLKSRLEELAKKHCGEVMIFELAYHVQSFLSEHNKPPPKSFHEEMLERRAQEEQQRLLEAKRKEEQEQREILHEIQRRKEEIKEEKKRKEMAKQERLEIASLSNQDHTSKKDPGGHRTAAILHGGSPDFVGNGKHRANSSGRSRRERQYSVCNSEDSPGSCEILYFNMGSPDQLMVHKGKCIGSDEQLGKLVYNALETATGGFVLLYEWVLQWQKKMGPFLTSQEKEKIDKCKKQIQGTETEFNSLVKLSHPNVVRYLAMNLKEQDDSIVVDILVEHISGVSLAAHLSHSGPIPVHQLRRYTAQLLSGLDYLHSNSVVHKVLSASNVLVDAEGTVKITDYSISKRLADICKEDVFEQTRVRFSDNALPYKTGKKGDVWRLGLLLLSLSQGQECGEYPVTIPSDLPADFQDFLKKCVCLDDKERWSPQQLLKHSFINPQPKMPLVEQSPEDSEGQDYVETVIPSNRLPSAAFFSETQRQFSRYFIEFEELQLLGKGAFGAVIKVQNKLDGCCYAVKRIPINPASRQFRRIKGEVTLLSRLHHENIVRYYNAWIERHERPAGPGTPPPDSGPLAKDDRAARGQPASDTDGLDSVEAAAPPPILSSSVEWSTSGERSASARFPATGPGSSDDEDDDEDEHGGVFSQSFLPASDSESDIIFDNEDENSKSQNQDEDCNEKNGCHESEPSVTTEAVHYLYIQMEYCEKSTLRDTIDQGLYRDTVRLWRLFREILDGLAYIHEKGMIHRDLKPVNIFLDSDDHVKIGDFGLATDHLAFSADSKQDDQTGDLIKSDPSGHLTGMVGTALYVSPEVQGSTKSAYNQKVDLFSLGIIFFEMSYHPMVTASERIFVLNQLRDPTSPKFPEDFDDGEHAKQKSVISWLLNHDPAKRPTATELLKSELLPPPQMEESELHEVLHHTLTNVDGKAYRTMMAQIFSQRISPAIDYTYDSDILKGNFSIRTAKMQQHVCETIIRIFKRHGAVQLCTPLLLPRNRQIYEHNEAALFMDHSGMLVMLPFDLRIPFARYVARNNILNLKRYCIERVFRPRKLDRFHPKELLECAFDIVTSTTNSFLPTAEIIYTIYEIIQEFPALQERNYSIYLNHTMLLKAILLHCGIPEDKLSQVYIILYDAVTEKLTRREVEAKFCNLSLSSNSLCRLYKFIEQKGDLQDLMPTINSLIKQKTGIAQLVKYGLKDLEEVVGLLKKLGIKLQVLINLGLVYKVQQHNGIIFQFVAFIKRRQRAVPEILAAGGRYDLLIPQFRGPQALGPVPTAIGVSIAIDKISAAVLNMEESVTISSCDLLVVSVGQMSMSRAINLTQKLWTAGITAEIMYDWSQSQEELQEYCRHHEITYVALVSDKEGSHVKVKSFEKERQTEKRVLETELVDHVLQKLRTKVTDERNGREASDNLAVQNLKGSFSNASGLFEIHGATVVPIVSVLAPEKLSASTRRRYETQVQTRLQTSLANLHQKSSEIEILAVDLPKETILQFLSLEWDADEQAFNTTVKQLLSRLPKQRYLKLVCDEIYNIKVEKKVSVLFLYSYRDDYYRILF

- COMPOUND: "CNc1ncc2cc(-c3cccc(NS(=O)(=O)c4cc(Cl)cnc4OC)c3C)c(C)nc2n1 [Example 51]"
  TARGET DESC: "GCN2 kinase (Homo sapiens (Human), UniProt Q9P2K8)"
  IC50: "≤ 100 nM"
- COMPOUND: "CNc1ncc2cc(-c3cc(NS(=O)(=O)c4cc(Cl)cnc4OC)ccc3Cl)c(C)nc2n1 [Example 68]"
  TARGET DESC: "GCN2 kinase (Homo sapiens (Human), UniProt Q9P2K8)"
  IC50: "≤ 100 nM"
- COMPOUND: "CNc1cc2nc(C)c(-c3cc(NS(=O)(=O)c4cc(Cl)cnc4OC)ccc3C)cc2cn1 [Example 32]"
  TARGET DESC: "GCN2 kinase (Homo sapiens (Human), UniProt Q9P2K8)"
  IC50: "≤ 100 nM"
- COMPOUND: "CNc1ncc2cc(-c3cccc(NS(=O)(=O)c4cc(Cl)cc(C(N)=O)c4Cl)c3F)c(NC)nc2n1 [Example 112]"
  TARGET DESC: "GCN2 kinase (Homo sapiens (Human), UniProt Q9P2K8)"
  IC50: "1000 to 10000 nM"
- COMPOUND: "COc1nc2nc(N)ncc2cc1-c1ccnc(NS(=O)(=O)c2cc(Cl)cnc2OC)c1F [Example 135]"
  TARGET DESC: "GCN2 kinase (Homo sapiens (Human), UniProt Q9P2K8)"
  IC50: "≤ 100 nM"
- COMPOUND: "COc1ncc(Cl)cc1S(=O)(=O)Nc1cccc(-c2ccc3nc(N)ncc3c2)c1F [Example 33]"
  TARGET DESC: "GCN2 kinase (Homo sapiens (Human), UniProt Q9P2K8)"
  IC50: "≤ 100 nM"
- COMPOUND: "CNc1ncc2cc(-c3cccc(NS(=O)(=O)c4cc(Cl)cnc4OC)c3OC)c(C)nc2n1 [Example 89]"
  TARGET DESC: "GCN2 kinase (Homo sapiens (Human), UniProt Q9P2K8)"
  IC50: "100 to 500 nM"
- COMPOUND: "CNc1ncc2cc(-c3cccc(NS(=O)(=O)c4cc(F)cc(CO)c4F)c3F)c(NC)nc2n1 [Example 178]"
  TARGET DESC: "GCN2 kinase (Homo sapiens (Human), UniProt Q9P2K8)"
  IC50: "≤ 100 nM"
